Data provenance is paper PMC6706699.

Biological target: T1, NECAP1 PHear (1-133) R102A (UniProt Q8NC96 1-133, R102A)
T1 sequence: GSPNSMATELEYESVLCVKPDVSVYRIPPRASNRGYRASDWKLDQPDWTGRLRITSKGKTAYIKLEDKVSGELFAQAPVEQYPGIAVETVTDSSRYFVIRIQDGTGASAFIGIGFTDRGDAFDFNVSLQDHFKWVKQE
Experiment: ITC
Square brackets hold non-standard residues; d marks the D form. Ends that are not written are not given here. pT = C[C@@H](OP(=O)(O)O)[C@H](N)C(=O)O
MEASURED_PROPERTY: pKd
pKd (log units): -log10 of the concentration in mol/L.

Please report the recorded pKd for SQITSQV[pT]GQIGWRR (also called Peptide μ2linker Phos; phosphorylated μ2 peptide; source: synthetic peptide (Genscript)) [T156-phosphorylated μ2 linker peptide (residues 149–163)] . 4.24
